- Test system: wheat (Triticum aestivum)
- assay-method-text: Test B pre-/postemergence
- Assay type: in vivo
- Design: key: 0 is no effect; 10 is complete control
- cond: Rate 250 g/ha, Postemergence (so in the source)
- Protocol: […] At the same time, these crop and weed species were also treated with postemergence applications of test chemicals formulated in the same manner. […] Treated plants and controls were maintained in a greenhouse for twelve to sixteen days, after which all species were compared to controls and visually evaluated. […]
endpoint-name: Plant response rating, Wheat

>>> val("Cc1cnc(-c2ccc(C#N)cc2)nc1Cc1cccc(C#N)c1")
0
>>> val("CCc1cnc(-n2cnc(C(F)(F)F)c2)nc1Cc1cccc(OC(F)(F)F)c1")
4
>>> val("Cc1cnc(-n2cnc(C(F)(F)F)n2)nc1Cc1cccc(C(F)(F)F)c1")
2
>>> val("Cc1cnc(-n2cnc(C(F)(F)F)c2)nc1Cc1cccc(C(F)(F)F)c1")
3
>>> val("CCc1cnc(-n2ccc(C(F)(F)F)n2)nc1Cc1cccc(OC(F)(F)F)c1")
5
>>> val("Cc1cnc(-c2ccc(Cl)cc2)nc1Cc1cccc(C(F)(F)F)c1")
0

* * *

# Plant response rating, Crabgrass values compiled below
- Test system: crabgrass (Digitaria sanguinalis)
- assay-method-text: Test B pre-/postemergence
- Assay type: in vivo
- Design: key: 0 is no effect; 10 is complete control
- cond: Rate 250 g/ha, Postemergence (so in the source)
endpoint-name: Plant response rating, Crabgrass

>>> val("Cc1cnc(-c2ccc(C#N)cc2)nc1Cc1cccc(C#N)c1")
0
>>> val("Cc1cnc(-c2ccc(F)cc2F)nc1Cc1cccc(C#N)c1")
1
>>> val("Cc1cnc(-c2ccc(F)c(Cl)c2)nc1Cc1cccc(C#N)c1")
0
>>> val("Cc1cnc(-c2ccc(Cl)c(Cl)c2)nc1Cc1cccc(C(F)(F)F)c1")
5
>>> val("CCc1cnc(-n2cnc(C(F)(F)F)n2)nc1Cc1cccc(OC(F)(F)F)c1")
9
>>> val("Cc1cnc(-c2ccccc2F)nc1Cc1cccc(C(F)(F)F)c1")
1
>>> val("Cc1cnc(-c2ccc(Cl)cc2)nc1Cc1cccc(C#N)c1")
0
>>> val("CCc1cnc(-n2ccc(C(F)(F)F)n2)nc1Cc1cccc(C(F)(F)F)c1")
10

* * *

- Test system: bedstraw (Galium aparine)
- assay-method-text: Test B pre-/postemergence
- Type: in vivo
- cond: Rate 125 g/ha, Postemergence
- Procedure: […] At the same time, these crop and weed species were also treated with postemergence applications of test chemicals formulated in the same manner. […] Treated plants and controls were maintained in a greenhouse for twelve to sixteen days, after which all species were compared to controls and visually evaluated. […]
endpoint-name: Plant response rating, Bedstraw

>>> val("Cc1cnc(-c2ccc(C(F)(F)F)cc2)nc1Cn1cnc(C(F)(F)F)n1 [Compound 11]")
9
>>> val("Cc1cnc(-c2ccc(C(F)(F)F)cc2)nc1Cn1ccc(C(F)(F)C(F)(F)F)n1 [Compound 14]")
4
>>> val("CCc1cnc(-n2cnc(C(F)(F)F)n2)nc1Cc1cccc(OC(F)(F)F)c1 [Compound 50]")
10
>>> val("Cc1cnc(-c2ccccc2F)nc1Cc1cccc(C(F)(F)F)c1 [Compound 26]")
3
>>> val("Cc1cnc(-c2ccc(C(F)(F)F)cc2)nc1Cc1cccc(C#N)c1 [Compound 32]")
6
>>> val("CCc1cnc(-c2ccc(C(F)(F)F)cc2)nc1Cc1cccc(C(F)(F)F)c1 [Compound 22]")
8
>>> val("Cc1cnc(-c2cccc(C(F)(F)F)c2)nc1Cc1cccc(C#N)c1 [Compound 39]")
3
>>> val("Cc1cnc(-c2ccc(Cl)c(Cl)c2)nc1Cc1cccc(C(F)(F)F)c1 [Compound 27]")
9
>>> val("Cc1cnc(-c2ccc(F)c(Cl)c2)nc1Cc1cccc(C#N)c1 [Compound 40]")
4

* * *

- Test system: velvetleaf (Abutilon theophrasti)
- assay-method-text: Test B pre-/postemergence
- Type: in vivo
- Set-up: key: 0 is no effect; 10 is complete control
- cond: Rate 250 g/ha, Preemergence
Listing of recorded Plant response rating, Velvetleaf by entry.
endpoint-name: Plant response rating, Velvetleaf

>>> val("Cc1cnc(-n2ccc(C(F)(F)F)n2)nc1C(=O)c1ccc(C(F)(F)F)cc1 [Compound 65]")
0
>>> val("Cc1cnc(-n2cnc(C(F)(F)F)n2)nc1C(=O)c1cccc(C(F)(F)F)c1 [Compound 67]")
10
>>> val("Cc1cnc(-n2ccc(C(F)(F)F)n2)nc1C(=O)c1cccc(C(F)(F)F)c1 [Compound 59]")
9
>>> val("COC(=O)C(c1cccc(C(F)(F)F)c1)c1nc(-c2ccc(C(F)(F)F)cc2)ncc1C (racemic) [Compound 18]")
0
>>> val("Cc1cnc(-c2cccc(C(F)(F)F)c2)nc1Cc1cccc(C(F)(F)F)c1 [Compound 24]")
2
>>> val("O=C(c1cccc(C(F)(F)F)c1)c1ccnc(-n2ccc(C(F)(F)F)n2)n1 [Compound 70]")
0
>>> val("Cc1cnc(-c2ccc(C(F)(F)F)cc2)nc1C(=O)c1cccc(C(F)(F)F)c1 [Compound 73]")
7
>>> val("O=C(c1cccc(C(F)(F)F)c1)c1ccnc(-c2ccc(F)cc2F)n1 [Compound 76]")
0
>>> val("CCc1cnc(-n2ccc(C(F)(F)F)n2)nc1C(=O)c1cccc(C#N)c1 [Compound 72]")
7
>>> val("O=C(c1cccc(C(F)(F)F)c1)c1ccnc(-c2ccc(C(F)(F)F)cc2)n1 [Compound 77]")
3
>>> val("Cc1cnc(-c2ccc(C(F)(F)F)cc2)nc1C(=O)c1cccc(OC(F)(F)F)c1 [Compound 75]")
9
>>> val("Cc1cnc(-n2cnc(C(F)(F)F)c2)nc1C(=O)c1cccc(C(F)(F)F)c1 [Compound 61]")
10
>>> val("Cc1cnc(-c2ccc(Cl)cc2)nc1Cn1ccc(C(F)(F)F)n1 [Compound 6]")
2
>>> val("Cc1cnc(-c2ccc(OC(F)(F)F)cc2)nc1Cc1cccc(C(F)(F)F)c1 [Compound 16]")
1
>>> val("Cc1cnc(-c2ccc(F)c(Cl)c2)nc1Cc1cccc(C(F)(F)F)c1 [Compound 25]")
2

* * *

- Test system: blackgrass (Alopecurus myosuroides)
- assay-method-text: Test B pre-/postemergence
- Assay type: in vivo
- cond: Rate 125 g/ha, Postemergence
Blackgrass plant response rating: recorded values
endpoint-name: Blackgrass plant response rating

>>> val("COc1cnc(-n2ccc(C(F)(F)F)n2)nc1C(=O)c1cccc(C(F)(F)F)c1 [Compound 60]")
1
>>> val("Cc1cnc(-n2ccc(C(F)(F)F)n2)nc1C(=O)c1cccc(C(F)(F)F)c1 [Compound 59]")
3
>>> val("Cc1cnc(-c2ccc(C(F)(F)F)cc2)nc1Cn1ccc(C#N)n1 [Compound 53]")
1
>>> val("Cc1cnc(-n2cnc(C(F)(F)F)n2)nc1C(=O)c1cccc(OC(F)(F)F)c1 [Compound 64]")
5

* * *

Wild oats plant response rating by entry:
- Test system: wild oat (Avena fatua)
- assay-method-text: Test B pre-/postemergence
- Type: in vivo
- cond: Rate 62 g/ha, Preemergence
endpoint-name: Wild oats plant response rating

>>> val("Cc1cnc(-n2cnc(C(F)(F)F)n2)nc1Cn1ccc(C(F)(F)F)n1")
4
>>> val("Cc1cnc(-c2ccc(Cl)cc2)nc1Cc1cccc(C#N)c1")
0
>>> val("Cc1cnc(-c2ccc(Cl)cc2F)nc1Cc1cccc(C#N)c1")
0
>>> val("CCc1cnc(-n2cnc(C(F)(F)F)c2)nc1Cc1cccc(OC(F)(F)F)c1")
2
>>> val("Cc1cnc(-n2ccc(C(F)(F)F)n2)nc1Cn1ccc(C(F)(F)F)n1")
3

* * *

- System: corn (Zea mays)
- assay-method-text: Test B pre-/postemergence
- Type: in vivo
- Parameters: key: 0 is no effect; 10 is complete control
- cond: Rate 125 g/ha, Postemergence
endpoint-name: Corn plant response rating

>>> val("N#Cc1ccc(-c2nccc(C(=O)c3cccc(C(F)(F)F)c3)n2)cc1")
0
>>> val("CCc1cnc(-n2cnc(C(F)(F)F)c2)nc1C(=O)c1cccc(OC(F)(F)F)c1")
3
>>> val("Cc1cnc(-c2ccc(C(F)(F)F)cc2)nc1Cn1cc(Br)cn1")
2
>>> val("O=C(c1cccc(C(F)(F)F)c1)c1ccnc(-c2ccc(C(F)(F)F)cc2)n1")
1
>>> val("O=C(c1cccc(C(F)(F)F)c1)c1ccnc(-c2ccc(F)cc2F)n1")
1
>>> val("Cc1cnc(-c2ccc(C(F)(F)F)cc2)nc1C(=O)c1cccc(C(F)(F)F)c1")
3
>>> val("Cc1cnc(-n2ccc(C(F)(F)C(F)(F)F)n2)nc1C(=O)c1cccc(OC(F)(F)F)c1")
2

* * *

- System: crabgrass (Digitaria sanguinalis)
- assay-method-text: Test B pre-/postemergence
- Format: in vivo
- cond: Rate 500 g/ha, Postemergence
endpoint-name: Plant response rating, Crabgrass

>>> val("Cc1cnc(-n2cnc(C(F)(F)F)c2)nc1C(=O)c1cccc(C(F)(F)F)c1 [Compound 61]")
9
>>> val("Cc1cnc(-c2ccc(C(F)(F)F)cc2)nc1C(=O)c1cccc(C(F)(F)F)c1 [Compound 73]")
9
>>> val("Cc1cnc(-c2ccc(C(F)(F)F)cc2)nc1Cn1ccc(C(F)(F)C(F)(F)F)n1 [Compound 14]")
4
